# target-desc: human A2aR (Homo sapiens, UniProt P29274)
# Sequence (P29274 whole entry): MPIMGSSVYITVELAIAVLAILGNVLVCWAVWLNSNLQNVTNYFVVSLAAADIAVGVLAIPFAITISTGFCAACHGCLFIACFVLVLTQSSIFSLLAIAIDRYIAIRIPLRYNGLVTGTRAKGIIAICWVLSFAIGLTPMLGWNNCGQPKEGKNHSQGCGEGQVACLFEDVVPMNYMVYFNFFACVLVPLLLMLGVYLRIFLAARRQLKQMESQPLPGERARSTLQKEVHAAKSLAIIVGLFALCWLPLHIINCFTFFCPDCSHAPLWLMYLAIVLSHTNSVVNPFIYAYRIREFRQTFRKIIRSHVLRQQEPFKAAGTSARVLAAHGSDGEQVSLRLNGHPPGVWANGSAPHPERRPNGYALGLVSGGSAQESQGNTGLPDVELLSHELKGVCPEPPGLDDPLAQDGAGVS
# protocol-notes: Binding of humanized anti-A2aR antibodies in transfected Expi293F cell supernatant to human A2aR on HEK293 cells (FACS, MFI)
# measurement-parameters: supernatant with 1 μg/ml antibody; HEK293 overexpressing human A2aR; heavy chain (row) x light chain
This listing pairs molecules with measured MFI, binding to human A2aR on cell surface (3F6-9G5 derived).
measure: MFI, binding to human A2aR on cell surface (3F6-9G5 derived)

INSERT INTO assay_data (molecule, numeric_readout) VALUES
  ('Hu3F6-H3/Hu3F6-L1: humanized anti-A2aR IgG1 FES antibody; HCVR SEQ ID NO:60, LCVR SEQ ID NO:76 (antibody, V domains shown) VH: EVQLVQSGAEVKKPGASVKVSCKTSGFAFTSYWMNWVRQAPGQGLEWIGRIDPSDSEAHYHHKFWGRATLTVDTSSSTVYMELSSLRSEDTAVYYCLRSLYGKGDYWGHGTTVTVSS VL: DVVMTQSPLSLPVTLGQPASISCRSSQSLVHRNGNTYLEWFQQRPGQSPRRLIYKVSNRFSGVPDRFSGSGSGTDFTLKISRVEAEDVGVYYCYQGSHVPLTFGGGTKVEIK', 12),
  ('Hu3F6-H5/Hu3F6-L2: humanized anti-A2aR IgG1 FES antibody; HCVR SEQ ID NO:62, LCVR SEQ ID NO:77 (antibody, V domains shown) VH: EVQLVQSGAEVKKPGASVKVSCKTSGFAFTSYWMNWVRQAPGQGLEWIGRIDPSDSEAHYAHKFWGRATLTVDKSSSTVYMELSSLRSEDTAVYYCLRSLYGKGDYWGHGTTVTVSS VL: DVVMTQSPLSLPVTLGQPASISCRSSQSLVHRNGNTYLEWYQQRPGQSPRRLIYKVSNRFSGVPDRFSGSGSGTDFTLKISRVEAEDVGVYYCYQGSHVPLTFGGGTKVEIK', 191);
